# ASSAYED_SYSTEM: T1, APLF FHA domain (forkhead-associated domain of aprataxin and PNKP-like factor) (human, UniProt Q8IW19 1-105)
# T1 sequence: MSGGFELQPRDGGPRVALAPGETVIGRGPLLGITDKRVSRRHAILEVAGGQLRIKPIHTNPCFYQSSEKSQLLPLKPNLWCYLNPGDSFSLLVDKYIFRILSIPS
# ASSAY_NOTES: NMR titration; 2D 1H,15N-HSQC of 0.1 mM U-[15N] APLF-FHA as a function of phosphopeptide concentration (0–800 μM); 25 mM HEPES, 25 mM MES, 150 mM NaCl, 1 mM EDTA, pH 7.4; 35°C; lineshape simulation (two-site exchange) for Kd and τB of the 18-residue peptide
# ASSAY_SETUP: both partners purified
Square brackets hold non-standard residues; d marks the D form. Ends that are not written are not given here. pT = C[C@@H](OP(=O)(O)O)[C@H](N)C(=O)O; pS = N[C@@H](COP(=O)(O)O)C(=O)O
READOUT_LABEL: Kd
Please append the unit to your numeric answer.

Quick one: Kd for PYAG[pS][pT]DEN [XRCC1_(pSpT-9) diphosphopeptide] ?
80 µM

These data points were gathered from paper PMC5716189.
